List of MIC values.
- Tested on: Staphylococcus aureus
- Assay Text: Antibacterial activity against Staphylococcus aureus ATCC 29213
- Type: functional

compound="O=C(NN1C(=O)CSC1c1ccccc1)c1cc(-c2ccc(Cl)cc2)n[nH]1 (racemic)" test_target="Staphylococcus aureus" value_observed="0.91 µg/mL"
compound="O=C(NN1C(=O)[C@H](Cl)[C@H]1c1ccc(Cl)cc1)c1cc(-c2ccc(Cl)cc2)n[nH]1 (racemic)" test_target="Staphylococcus aureus" value_observed="0.28 µg/mL"
compound=O=C(N/N=C/c1ccccc1)c1cc(-c2ccc(Cl)cc2)n[nH]1 test_target="Staphylococcus aureus" value_observed="4 µg/mL"

# MIC (compound: COc1ccc([C@@H]2[C@@H](Cl)C(=O)N2NC(=O)c2cc(-c3ccc(Cl)cc3)n[nH]2)cc1 (racemic) ) is 0.0025 µg/mL

# MIC (compound: O=C(NN1C(=O)[C@H](Cl)[C@H]1c1ccccc1Cl)c1cc(-c2ccc(Cl)cc2)n[nH]1 (racemic) ) is 0.034 µg/mL

# MIC (compound: O=C(NN1C(=O)CSC1c1ccc(Cl)cc1)c1cc(-c2ccc(Cl)cc2)n[nH]1 (racemic) ) is 0.048 µg/mL

# MIC (compound: COc1ccc([C@@H]2[C@@H](Cl)C(=O)N2NC(=O)c2cc(-c3ccc(Cl)cc3)n[nH]2)cc1OC (racemic) ) is 0.05 µg/mL

# MIC (compound: COc1ccc(C2SCC(=O)N2NC(=O)c2cc(-c3ccc(Cl)cc3)n[nH]2)cc1OC (racemic) ) is 0.06 µg/mL

# MIC (compound: O=C(NN1C(=O)CSC1c1ccc(O)cc1)c1cc(-c2ccc(Cl)cc2)n[nH]1 (single isomer, unassigned; (+)) ) is 0.125 µg/mL

# MIC (compound: O=C(NN1C(=O)CSC1c1ccccc1O)c1cc(-c2ccc(Cl)cc2)n[nH]1 (racemic) ) is 0.06 µg/mL

# MIC (compound: COc1cc([C@@H]2[C@@H](Cl)C(=O)N2NC(=O)c2cc(-c3ccc(Cl)cc3)n[nH]2)ccc1O (racemic) ) is 0.125 µg/mL

# MIC (compound: O=C(O)c1cn(C2CC2)c2cc(N3CCNCC3)c(F)cc2c1=O ) is 0.25 µg/mL

# MIC (compound: COc1cc(C2SCC(=O)N2NC(=O)c2cc(-c3ccc(Cl)cc3)n[nH]2)ccc1O (racemic) ) is 0.15 µg/mL

# MIC (compound: O=C(N/N=C/c1ccccc1O)c1cc(-c2ccc(Cl)cc2)n[nH]1 ) is 0.4 µg/mL

###

List of MIC values.
- System: Cryptococcus neoformans
- Assay Text: Antifungal activity against Cryptococcus neoformans KCCM 50564 after 1 day
- Format: functional
- Condition Context: KCCM 50564, 24 h
Respond numerically; units are µg/mL and should not be typed.

Below, each entry is followed by its recorded MIC result.
compound="COc1cc(C2SCC(=O)N2NC(=O)c2cc(-c3ccc(Cl)cc3)n[nH]2)ccc1O (racemic)" unit_name=µg/mL value_observed=1.6
compound=O=C(N/N=C/c1ccccc1)c1cc(-c2ccc(Cl)cc2)n[nH]1 unit_name=µg/mL value_observed=1.6
compound="COc1ccc([C@@H]2[C@@H](Cl)C(=O)N2NC(=O)c2cc(-c3ccc(Cl)cc3)n[nH]2)cc1OC (racemic)" unit_name=µg/mL value_observed=3.2

# MIC (compound: O=C(NN1C(=O)CSC1c1ccc(O)cc1)c1cc(-c2ccc(Cl)cc2)n[nH]1 (single isomer, unassigned; (+)) ) is 1.6

# MIC (compound: COc1ccc(/C=N/NC(=O)c2cc(-c3ccc(Cl)cc3)n[nH]2)cc1 ) is 50

# MIC (compound: O=C(NN1C(=O)[C@H](Cl)[C@H]1c1ccc(Cl)cc1)c1cc(-c2ccc(Cl)cc2)n[nH]1 (racemic) ) is 1.6

# MIC (compound: O=C(NN1C(=O)[C@H](Cl)[C@H]1c1cccc([N+](=O)[O-])c1)c1cc(-c2ccc(Cl)cc2)n[nH]1 (racemic) ) is 50

# MIC (compound: COc1ccc(/C=N/NC(=O)c2cc(-c3ccc(Cl)cc3)n[nH]2)cc1OC ) is 12.5
